target: BRG1 (Homo sapiens, UniProt P51532); test: biochemical; type: binding; details: BRG1 HTRF IC50 (µM)
Sequence (P51532 1448-1575): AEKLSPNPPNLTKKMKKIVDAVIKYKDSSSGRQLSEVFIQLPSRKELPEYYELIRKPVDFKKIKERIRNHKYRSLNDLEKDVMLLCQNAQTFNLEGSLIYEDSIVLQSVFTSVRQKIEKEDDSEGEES

| compound | units of measure | IC50 |
| --- | --- | --- |
| Cn1nccc1-c1cc(-c2ccccc2O)nnc1N | µM | 1.08 |
| Nc1nnc(-c2ccccc2O)cc1C(=O)NCc1ccccc1 | µM | 0.102 |
| Nc1nnc(-c2ccccc2O)cc1N1C[C@H]2CN(Cc3ccccc3)C[C@H]2C1 | µM | 0.0615 |
| CN(C)C1CCN(c2cc(-c3ccccc3O)nnc2N)CC1 | µM | 0.0929 |
| CS(=O)(=O)CCN1CCN(c2cc(-c3ccccc3O)nnc2N)CC1 | µM | 0.0978 |
| CN(C)Cc1ccc(-c2cc(-c3ccccc3O)nnc2N)cc1 | µM | 0.0222 |
| Nc1nnc(-c2ccccc2O)cc1N1CCNC(Cc2ccccc2)C1 (centres unmarked) | µM | 0.0848 |
| CC(C)(C)OC(=O)N1CCC(c2cc(-c3ccccc3O)nnc2N)C1 (centres unmarked) | µM | 0.0694 |
| CNC(=O)CN1CCN(c2cc(-c3ccccc3O)nnc2N)CC1 | µM | 0.0746 |
| Nc1nnc(-c2ccccc2O)cc1N1CCN(Cc2ccccc2)CC1 | µM | 0.0612 |
| CC1CN(c2cc(-c3ccccc3O)nnc2N)CCN1C(=O)C(C)(C)O (centres unmarked) | µM | 0.0349 |
| C[C@@H](C1CCN(c2cc(-c3ccccc3O)nnc2N)CC1)N(C)C | µM | 0.0247 |
| CC(=O)N1CCCC(Oc2cc(-c3ccccc3O)nnc2N)C1 (centres unmarked) | µM | 0.137 |
| Nc1nnc(-c2c(O)cccc2F)cc1-c1ccccc1 | µM | 0.435 |
| COCCS(=O)(=O)N1CCN(c2cc(-c3ccccc3O)nnc2N)C[C@H]1C | µM | 0.0535 |
| Cc1nc(CN2CCN(c3cc(-c4ccccc4O)nnc3N)CC2)co1 | µM | 0.0569 |
| Nc1nnc(-c2ccccc2O)cc1N1C[C@H]2C[C@@H]1CN2c1ccccn1 | µM | 0.0106 |
| Nc1nnc(-c2ccc(F)cc2O)cc1-c1ccccc1 | µM | 0.995 |
| Nc1nnc(-c2ccccc2O)cc1N1CCN(Cc2n[nH]c3ccccc23)CC1 | µM | 0.0259 |
| CN(C)C(=O)C1CCN(c2cc(-c3ccccc3O)nnc2N)CC1 | µM | 0.0564 |
| CN(CCc1ccccc1)c1cc(-c2ccccc2O)nnc1N | µM | 0.0962 |
| C[C@@H]1CN(c2cc(-c3ccccc3O)nnc2N)C[C@@H](C)O1 | µM | 0.0589 |
| CC1CN(c2cc(-c3ccccc3O)nnc2N)CCN1C(=O)C1CC1c1ccccc1 (centres unmarked) | µM | 0.0258 |
| CC1CN(c2cc(-c3ccccc3O)nnc2N)CCN1C(=O)c1cncs1 (centres unmarked) | µM | 0.0126 |
| CN(C)CCOc1cc(-c2ccccc2O)nnc1N | µM | 0.263 |
| Nc1nnc(-c2ccccc2O)cc1N1CCNC(C(F)(F)F)C1 (centres unmarked) | µM | 0.172 |
| CC1CN(c2cc(-c3ccccc3O)nnc2N)CCN1C(=O)CN(C)C (centres unmarked) | µM | 0.0586 |
| Nc1nnc(-c2ccccc2O)cc1OC1CCCNC1 (centres unmarked) | µM | 0.281 |
| Nc1nnc(-c2ccccc2O)cc1N1CCC(O)C1 (centres unmarked) | µM | 0.0921 |
| CC(=O)N1[C@H](C)CN(c2cc(-c3ccccc3O)nnc2N)C[C@H]1C | µM | 0.505 |
| Nc1nnc(-c2ccccc2O)cc1N1CCN(c2ccccc2)C(=O)C1 | µM | 0.208 |
| CC1CN(c2cc(-c3ccccc3O)nnc2N)CCN1C(=O)C(C)(C)C (centres unmarked) | µM | 0.0104 |
| Cn1ccnc1CN1CCN(c2cc(-c3ccccc3O)nnc2N)CC1 | µM | 0.0324 |
| Nc1nnc(-c2ccccc2O)cc1N1CCS(=O)(=O)CC1 | µM | 0.414 |
| C[C@@H]1CN(c2cc(-c3ccccc3O)nnc2N)CCN1C(=O)[C@@H]1CCCO1 | µM | 0.033 |
| C[C@@H](C(=O)N(C)C)n1cc(-c2cc(-c3ccccc3O)nnc2N)cn1 | µM | 0.0247 |
| Nc1ccc(-c2ccccc2O)nn1 | µM | 0.335 |
| Nc1nnc(-c2ccccc2O)cc1N1CCc2[nH]ncc2C1 | µM | 0.128 |

====

target: BRG1 (Homo sapiens, UniProt P51532); assay: biochemical; format: binding; details: BRG1 HTRF IC50 (µM)
measurement name: IC50 (µM)

| compound | readout number |
| --- | --- |
| CC1CN(c2cc(-c3ccccc3O)nnc2N)CCN1S(=O)(=O)C1CC1 (centres unmarked) [Example 111] | 0.0197 |
| Cc1cc(CN2CCN(c3cc(-c4ccccc4O)nnc3N)CC2)no1 [Example 101] | 0.0653 |
| C[C@@H]1CN(c2cc(-c3ccccc3O)nnc2N)CCN1Cc1nccn1C [Example 93] | 0.0238 |
| Nc1nnc(-c2ccccc2O)cc1N1CCOCC1 [Example 45] | 0.101 |
| Nc1nnc(-c2ccccc2O)cc1N1CCN(C(=O)c2ccccc2)CC1 [Example 61] | 0.0348 |
| CS(=O)(=O)N1CCC(c2cc(-c3ccccc3O)nnc2N)CC1 [Example 228] | 0.0537 |
| Nc1nnc(-c2ccccc2O)cc1OC1CCCN(Cc2ccccc2)C1 (centres unmarked) [Example 181] | 0.0337 |
| Nc1nnc(-c2ccccc2O)cc1OC1CCN(c2ccccc2)C1 (centres unmarked) [Example 184] | 0.192 |
| COC1(Cc2ccccc2)CCN(c2cc(-c3ccccc3O)nnc2N)C1 (centres unmarked) [Example 40] | 0.0794 |
| CC(=O)N1C2CCC1CN(c1cc(-c3ccccc3O)nnc1N)C2 [Example 66] | 0.0713 |
| CNC(=O)CN1CCN(c2cc(-c3ccccc3O)nnc2N)C[C@H]1C [Example 148] | 0.0613 |

====

molecular target: UniProt:P51532; assay: biochemical; format: binding; conditions: BRG1 HTRF IC50 (µM)

| compound | IC50 / µM |
| --- | --- |
| CC(C)(O)C(=O)N1CCC(c2cc(-c3ccccc3O)nnc2N)CC1 | 0.0437 |
| Nc1nnc(-c2ccccc2O)cc1N1CC2CCC(C1)N2C(=O)c1cncs1 | 0.0203 |
| Nc1nnc(-c2ccccc2O)cc1OC1CCN(Cc2ccccc2)C1 (stereo not drawn) | 0.0432 |
| CN(C)CC1CCCN(c2cc(-c3ccccc3O)nnc2N)C1 (stereo not drawn) | 0.116 |
| CC(C)[C@H](N)C(=O)N1CCN(c2cc(-c3ccccc3O)nnc2N)CC1C (stereo partly drawn) | 0.0475 |
| CC(Oc1cc(-c2ccccc2O)nnc1N)c1cccnc1 (stereo not drawn) | 0.0792 |
| C[C@H]1CN(c2cc(-c3ccccc3O)nnc2N)C[C@H](C)O1 | 0.0379 |
| Cc1ccc(S(=O)(=O)N2CCC(c3cc(-c4ccccc4O)nnc3N)CC2)cc1 | 0.36 |
| CC(=O)N1[C@H](C)CN(c2cc(-c3ccccc3O)nnc2N)C[C@@H]1C | 0.106 |

====

biological target: Polybromodomain-1 BromoDomain-5 (PB1-BD5) (Homo sapiens); assay: biochemical
Sequence (Q86U86 645-766): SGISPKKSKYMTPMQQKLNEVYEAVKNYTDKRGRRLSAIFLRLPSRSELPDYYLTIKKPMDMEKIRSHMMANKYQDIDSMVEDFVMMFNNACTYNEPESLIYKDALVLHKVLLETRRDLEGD
Each entry below lists one item and its recorded IC50 value.
measurement name: IC50

| compound | measurement name | result |
| --- | --- | --- |
| CN(C)Cc1ccc(-c2cc(-c3ccccc3O)nnc2N)cc1 | IC50 | 0.0288 µM |
| CC(Oc1cc(-c2ccccc2O)nnc1N)C1CCOCC1 (stereo not drawn) | IC50 | 0.113 µM |
| CC1CN(c2cc(-c3ccccc3O)nnc2N)CC(C)O1 (racemic) | IC50 | 0.024 µM |
| CC(c1ccccc1)N1CCN(c2cc(-c3ccccc3O)nnc2N)CC1 (stereo not drawn) | IC50 | 0.0245 µM |
| Nc1nnc(-c2ccccc2O)cc1OC1CCN(Cc2ccccc2)C1 (stereo not drawn) | IC50 | 0.0439 µM |
| Nc1nnc(-c2ccccc2O)cc1C1CCCC1 | IC50 | 0.0149 µM |
| CNc1ccc(-c2ccccc2O)nn1 | IC50 | 0.349 µM |
| Nc1nnc(-c2ccccc2O)cc1N1CCN(Cc2cccnc2)CC1 | IC50 | 0.0252 µM |
| CC(=O)N1CCN(c2cc(-c3ccccc3O)nnc2N)CC1 | IC50 | 0.0246 µM |

====

molecular target: BRG1 (Homo sapiens); assay: biochemical; assay type: binding; conditions: BRG1 HTRF IC50 (µM)
measurement name: IC50 (µM)

| molecule | measurement name | readout number |
| --- | --- | --- |
| Nc1nnc(-c2ccccc2O)cc1OC1CCCCC1 | IC50 | 0.0451 |
| Cn1cc(N2C3CCC2CN(c2cc(-c4ccccc4O)nnc2N)C3)cn1 | IC50 | 0.0309 |
| CN1CCC(Oc2cc(-c3ccccc3O)nnc2N)CC1 | IC50 | 0.161 |
| C[C@H](C(=O)N(C)C)n1cc(-c2cc(-c3ccccc3O)nnc2N)cn1 | IC50 | 0.0217 |
| CC(=O)N1CCN(c2cc(-c3ccccc3O)nnc2N)CC1 | IC50 | 0.0659 |
| CC1CN(c2cc(-c3ccccc3O)nnc2N)CCN1C(=O)c1ccccc1 (stereo not shown) | IC50 | 0.0117 |
| Nc1nnc(-c2ccccc2O)cc1N1CCCC(O)(c2ccccc2)C1 (stereo not shown) | IC50 | 0.0158 |
| Nc1nnc(-c2ccccc2O)cc1N1CCN(C(=O)c2cncs2)C(CO)C1 (stereo not shown) | IC50 | 0.0206 |
| CC(Oc1cc(-c2ccccc2O)nnc1N)C(C)(C)C (stereo not shown) | IC50 | 0.143 |
| CC(C)[C@H](N)C(=O)N1CCN(c2cc(-c3ccccc3O)nnc2N)C[C@@H]1C | IC50 | 0.113 |
| CN(C)CC1CCN(c2cc(-c3ccccc3O)nnc2N)CC1 | IC50 | 0.0395 |
| Nc1nnc(-c2ccccc2O)cc1N1CCN(Cc2cccnc2)CC1 | IC50 | 0.0373 |
| Nc1nnc(-c2ccccc2O)cc1C1CC1 | IC50 | 0.0176 |
| C[C@H]1CN(c2cc(-c3ccccc3O)nnc2N)CCN1C(=O)C(C)(C)O | IC50 | 0.0458 |
| C[C@H](Oc1cc(-c2ccccc2O)nnc1N)c1cccnc1 | IC50 | 0.0251 |
| CC(C)[C@H](N)C(=O)N1CCN(c2cc(-c3ccccc3O)nnc2N)C[C@H]1C | IC50 | 0.0296 |
| C[C@H]1CN(c2cc(-c3ccccc3O)nnc2N)CCN1Cc1nccn1C | IC50 | 0.0185 |
| Nc1nnc(-c2ccccc2O)cc1N1CC(OCc2ccccc2)C1 | IC50 | 0.0252 |
| Nc1nnc(-c2ccccc2O)cc1N1CC2CCC(C1)N2c1cncnc1 | IC50 | 0.0193 |
